test system: Phospho-GSK3β(S9); experiment: Luminex multiplex assay, Phospho-GSK3β(S9); format: cell-based; conditions: Homo sapiens, U-87 MG; U87MG cell line; read-out: Luminex GSK-3β
pIC50: −log10 of the molar value.
QUANTITY NAME: pIC50

COMPOUND	pIC50
COCCN1CC(=O)Nc2ncc(-c3ccc(-c4nnc[nH]4)nc3C)nc21 [A-5]	5.67

a = CC(C)(O)c1ccc(-c2cnc3c(n2)N(CC2CCOCC2)CC(=O)N3)cc1 [A-6]
b = CC(C)(O)c1ccc(-c2cnc3c(n2)N(CC2CCOCC2)CC(=O)N3)cn1 [A-1]
c = C[C@@H](O)c1ccc(-c2cnc3c(n2)N(CCC2CCOCC2)C(=O)CN3)cn1 [A-8]
d = Cc1nc(-c2nnc[nH]2)ccc1-c1cnc2c(n1)N(CCC1CCOCC1)C(=O)CN2 [A-4]
stdin: # desc sort on pIC50 across 4 compounds Form entry: ranked labels (order as requested).
stdout: d, c, b, a

----------
test system: GSK-3β; assay: MSD assay, GSK-3β phosphorylation in cell lysates; assay type: cell-based; conditions: PC3 cell line; read-out: MSD GSK-3β
QUANTITY NAME: IC50

Field: example entries. Status: answers known.
COMPOUND	EXPERIMENTAL VALUE
Cc1cc(-c2nc[nH]n2)c(F)cc1-c1cnc2c(n1)N(C1CCC(O)CC1)CC(=O)N2 (centres unmarked) [C-123]	> 500 nM
COC1CCC(N2C(=O)CNc3ncc(-c4ccc(C(C)(C)O)nc4)nc32)CC1 (centres unmarked)	> 500 nM
COC1CCC(N2CC(=O)Nc3ncc(-c4cc(F)c(-c5nc[nH]n5)cc4C)nc32)CC1 (centres unmarked)	65 nM
CO[C@H]1CC[C@@H](CN2CC(=O)Nc3ncc(-c4cc(F)c(-c5nc[nH]n5)cc4C)nc32)CC1	> 500 nM
COC1CCC(N2C(=O)CNc3ncc(-c4ccc(-c5ncn[nH]5)nc4)nc32)CC1 (centres unmarked)	> 500 nM
Cc1cc(-c2nc[nH]n2)c(F)cc1-c1cnc2c(n1)N(C(C)C)C(=O)CN2	1 nM
O=C1CNc2ncc(-c3ccc(-c4nc[nH]n4)nc3)nc2N1C1CCOCC1	> 500 nM

stdin: # get_value(readout='IC50', item= CCN1C(=O)CNc2ncc(-c3cc(F)c(-c4nc[nH]n4)cc3C)nc21 )
stdout: 33 nM

----------
tested on: Phospho-p70S6K (T389); experiment: MSD assay, phospho-p70S6K (T389) in cell lysates; type: cell-based; conditions: PC3 cell line; read-out: MSD p70S6K
QUANTITY NAME: IC50 (nM)

a = CCN1C(=O)CNc2ncc(-c3cc(F)c(-c4nc[nH]n4)cc3C)nc21
b = COC1CCC(N2CC(=O)Nc3ncc(-c4ccc(-c5ncn[nH]5)nc4)nc32)CC1 (stereo not shown) [C-136]
stdin: # argmax over IC50 for candidates a and b Indicate your choice by writing its label.
stdout: b

----------
Some compounds, each annotated with its measured IC50.
system: GSK-3β; experiment: MSD assay, GSK-3β phosphorylation in cell lysates; type: cell-based; conditions: PC3 cell line; read-out: MSD GSK-3β

COMPOUND	EXPERIMENTAL VALUE
Cc1c(-c2cnc3c(n2)N(C2CCOCC2)CC(=O)N3)ccc(-c2nc[nH]n2)c1F	> 0.15 µM
CCN1C(=O)CNc2ncc(-c3cnc4[nH]ccc4c3)nc21	> 0.5 µM
CCN1CC(=O)Nc2ncc(-c3ccc(-c4nc[nH]n4)nc3)nc21	> 0.5 µM
Cc1cc(-c2nc[nH]n2)ncc1-c1cnc2c(n1)N(C(C)C)C(=O)CN2	0.015 µM
COC1CCC(CN2C(=O)CNc3ncc(-c4ccc(-c5nc[nH]n5)nc4)nc32)CC1 (stereo not drawn)	> 0.5 µM

stdin: Endpoint output: IC50 of Cc1cc(-c2nc[nH]n2)c(F)cc1-c1cnc2c(n1)N(CC1CCC(O)CC1)C(=O)CN2 (stereo not drawn) [C-147] . Value?
stdout: > 0.5 µM

stdin: // repeat for Cc1cc(C(N)=O)ncc1-c1cnc2c(n1)N(C(C)C)C(=O)CN2 and report
stdout: 3.93 µM

stdin: Same lookup for O=c1[nH]c2ncc(-c3ccc(-c4nc[nH]n4)cc3)nc2n1CCC1CCOCC1 , please.
stdout: > 1.5 µM

stdin: Next compound: O=C1CNc2ncc(-c3ccc(O)nc3)nc2N1CCC1CCOCC1
stdout: > 0.5 µM
